# Tested on: 786-0
# procedureSummary: Cytotoxicity against human 786-O cells after 72 hrs by CCK8 assay
# Format: functional, cell-based
# experimentalConditions: 786-0, 72 h
assayReadout: pIC50
Remember the convention: pIC50 equals -log10 of concentration in molar.

{"compound": "CC[C@@H]1OC(=O)c2cc(O)c(O)cc21", "pIC50": 4.55}
{"compound": "C=C(C=O)[C@]1(O)C[C@@]2(C)C(=CC1=O)C=C[C@H](OC(=O)/C=C/C(C)=C/[C@@H](C)CC)[C@@H]2C", "pIC50": 5.60}
{"compound": "COC(=O)[C@]12Oc3cc(C)c(-c4ccc(O)c5c4O[C@@]4(C(=O)OC)C(=C(O)C[C@@H](C)[C@H]4O)C5=O)c(O)c3C(=O)C1=C(O)CC[C@H]2O", "pIC50": 4.34}
{"compound": "CNC(=O)c1cc(Oc2ccc(NC(=O)Nc3ccc(Cl)c(C(F)(F)F)c3)cc2)ccn1 [SORAFENIB]", "pIC50": 5.28}

Kindly consider the entry below.
stdin: Item `C=C(/C=N/O)[C@]1(OC)C[C@@]2(C)C(=CC1=O)C=C[C@H](OC(=O)/C=C/C(C)=C/[C@@H](C)CC)[C@@H]2C` has what recorded pIC50?
stdout: 4.57

The reported numbers originate from ChEMBL document CHEMBL4145582.
